The origin of these recorded values is patent US20100105729A1.

Parameter inhibition at 10 µM: see the listing below.
target: PDE4B (Homo sapiens, UniProt Q07343); construct: hexa-histidine (His6) (N); made in house; assay: PDE4 IMAP Assay; assay type: biochemical; conditions: catalytic domain of PDE4B, fluorescence polarization
Sequence (Q07343 330-659 limits assumed, species assumed): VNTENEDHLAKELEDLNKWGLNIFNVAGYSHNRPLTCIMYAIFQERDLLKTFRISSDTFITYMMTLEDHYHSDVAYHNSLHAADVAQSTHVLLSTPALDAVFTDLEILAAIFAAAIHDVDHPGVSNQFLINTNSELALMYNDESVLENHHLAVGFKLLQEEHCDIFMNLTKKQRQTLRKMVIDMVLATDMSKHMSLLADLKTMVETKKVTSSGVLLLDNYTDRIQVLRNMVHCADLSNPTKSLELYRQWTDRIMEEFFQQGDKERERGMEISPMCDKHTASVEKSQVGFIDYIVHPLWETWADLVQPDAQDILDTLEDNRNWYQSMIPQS

Solved entries:
1) COc1ccc(C2CC(c3ccc(OC)c(OC)c3)=NN2C(=O)c2ccccc2Cl)cc1 (stereo not shown) [Example 33] : ≥ 50%
2) COc1ccc(C2=NN(C(C)=O)C(c3ccc(F)cc3)C2)cc1OC (stereo not shown) [Example 102] : ≥ 50%
3) COc1ccc(C2CC(c3ccc(OC)c(OC)c3)=NN2C(=O)c2cccs2)cc1 (stereo not shown) [Example 41] : ≥ 50%

Inquiry: Which value of inhibition at 10 µM has been reported for COc1ccc(C2=NN(C(=O)c3cccs3)C(c3ccccc3Cl)C2)cc1OC (stereo not shown) [Example 39] in the records?
Reply text: < 50%

Inquiry: Quick check: inhibition at 10 µM of COc1ccc(C2=NN(S(=O)(=O)c3ccc(C)cc3)C(c3cccc(OC)c3OC)C2)cc1OC (stereo not shown) [Example 91] ?
Reply text: < 50%

----------
biological target: PDE4B (Homo sapiens, UniProt Q07343); construct: hexa-histidine (His6) (N); made in house; assay: PDE4 IMAP Assay; type: biochemical; conditions: catalytic domain of PDE4B, fluorescence polarization
Measured inhibition at 10 µM by item

1) COc1ccc(C2=NN(C(=O)CCCC(=O)O)C(c3ccc(F)cc3)C2)cc1OC (centres unmarked) [Example 65] : < 50%
2) COc1ccc(C2=NN(S(=O)(=O)c3ccc(C)cc3)C(c3ccc(F)cc3)C2)cc1OC (centres unmarked) [Example 55] : < 50%
3) COc1ccc(C2=NN(S(C)(=O)=O)C(c3cccs3)C2)cc1OC (centres unmarked) [Example 2] : < 50%
4) COc1ccc(C2CC(c3ccc(OC)c(OC)c3)=NN2C(=O)c2ccccc2)cc1 (centres unmarked) [Example 36] : ≥ 50%

# input for lookup
Inquiry: Requested field: inhibition at 10 µM. Item: COc1ccc(C2=NN(C(=O)c3ccc(Br)o3)C(c3ccc(Cl)cc3)C2)cc1OC (centres unmarked) [Example 47]
Reply text: ≥ 50%
